Target: Delta-type opioid receptor (Homo sapiens, UniProt P41143)
Sequence (P41143 whole entry): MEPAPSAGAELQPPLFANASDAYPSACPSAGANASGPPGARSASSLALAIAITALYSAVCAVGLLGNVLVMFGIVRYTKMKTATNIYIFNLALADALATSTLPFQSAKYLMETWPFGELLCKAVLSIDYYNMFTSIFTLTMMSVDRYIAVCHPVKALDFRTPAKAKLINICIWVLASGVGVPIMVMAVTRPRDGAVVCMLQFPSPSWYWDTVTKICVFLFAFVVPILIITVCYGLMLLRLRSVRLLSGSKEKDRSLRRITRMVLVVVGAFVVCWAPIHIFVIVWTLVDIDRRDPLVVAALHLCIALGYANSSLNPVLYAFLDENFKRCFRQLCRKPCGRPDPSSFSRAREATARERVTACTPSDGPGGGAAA
Test: Binding affinity to delta opioid receptor
pKi: −log10 of the molar value.
recorded_metric: pKi

compound: O=c1cc(-c2ccc(O)c(-c3c(O)cc(O)c4c(=O)cc(-c5ccc(O)cc5)oc34)c2)oc2cc(O)cc(O)c12 [AMENTOFLAVONE]
recorded_metric: pKi
experimental_result: 7.44

---

Target: Delta-type opioid receptor (Homo sapiens)
Experiment: Antagonist activity at human delta opioid receptor expressed in CHO cells by [35S]GTPgammaS assay
Format: functional, cell-based
Reported values of Ke for individual entries
recorded_metric: Ke (nM)

compound: O=C1CC(c2ccc(O)cc2)Oc2ccccc21 (centres undefined) [4'-HYDROXY-FLAVANONE]
recorded_metric: Ke
cmp: =
experimental_result: 3490

compound: O=C(O[C@@H]1Cc2c(O)cc(O)cc2O[C@@H]1c1ccc(O)c(O)c1)c1cc(O)c(O)c(O)c1 [EPICATECHIN GALLATE]
recorded_metric: Ke
cmp: =
experimental_result: 1700

compound: O=c1c(O[C@@H]2O[C@H](CO)[C@H](O)[C@H](O)[C@H]2O)c(-c2ccc(O)c(O)c2)oc2cc(O)cc(O)c12 [HYPEROSIDE]
recorded_metric: Ke
cmp: =
experimental_result: 9070

compound: O=c1cc(-c2ccc(O)cc2)oc2cc(O)ccc12
recorded_metric: Ke
cmp: =
experimental_result: 2090

compound: O=c1cc(-c2ccc(O)cc2)oc2cc(O)cc(O)c12
recorded_metric: Ke
cmp: =
experimental_result: 970

compound: Oc1cc(O)c2c(c1)O[C@@H](c1ccc(O)c(O)c1)[C@H](O)C2 [(-)-CATECHIN]
recorded_metric: Ke
cmp: =
experimental_result: 1770

compound: O=C(O[C@@H]1Cc2c(O)cc(O)cc2O[C@H]1c1ccc(O)c(O)c1)c1cc(O)c(O)c(O)c1 [(-)-CATECHINGALLATE]
recorded_metric: Ke
cmp: =
experimental_result: 950

compound: O=C1c2c(O)cc(O)cc2O[C@H](c2ccc(O)c(O)c2)[C@H]1O [(+)-TAXIFOLIN]
recorded_metric: Ke
cmp: =
experimental_result: 3820

compound: COc1ccc([C@@H]2CC(=O)c3c(O)cc(O)cc3O2)cc1O
recorded_metric: Ke
cmp: >
experimental_result: 10000

compound: O=c1cc(-c2ccc(O)c(-c3c(O)cc(O)c4c(=O)cc(-c5ccc(O)cc5)oc34)c2)oc2cc(O)cc(O)c12
recorded_metric: Ke
cmp: =
experimental_result: 6000

compound: Oc1cc(O)c2c(c1)O[C@H](c1ccc(O)c(O)c1)[C@@H](O)C2
recorded_metric: Ke
cmp: =
experimental_result: 1180

compound: Oc1cc(O)c2c(c1)O[C@@H](c1ccc(O)c(O)c1)[C@@H](O)C2 [(+)-EPICATECHIN]
recorded_metric: Ke
cmp: =
experimental_result: 2170

compound: Oc1cc(O)c2c(c1)O[C@H](c1cc(O)c(O)c(O)c1)[C@H](O)C2 [EPIGALLOCATECHIN]
recorded_metric: Ke
cmp: =
experimental_result: 1990

compound: O=C1C[C@@H](c2ccc(O)cc2)Oc2cc(O)cc(O)c21
recorded_metric: Ke
cmp: =
experimental_result: 3680

---

Biological target: Kappa-type opioid receptor (Homo sapiens)
Experiment: Antagonist activity at human kappa opioid receptor expressed in CHO cells by [35S]GTP-gamma-S assay
Format: functional, cell-based
Reported values of log10 of Ke for individual entries
recorded_metric: log10 of Ke (log10 of the value in nM)

compound: O=C(O[C@@H]1Cc2c(O)cc(O)cc2O[C@H]1c1ccc(O)c(O)c1)c1cc(O)c(O)c(O)c1 [(-)-CATECHINGALLATE]
experimental_result: 2.34
--
compound: Oc1cc(O)c2c(c1)O[C@H](c1ccc(O)c(O)c1)[C@@H](O)C2
experimental_result: 2.51
--
compound: O=c1cc(-c2ccc(O)cc2)oc2cc(O)ccc12
experimental_result: 3.21
--
compound: O=c1c(O[C@@H]2O[C@H](CO)[C@H](O)[C@H](O)[C@H]2O)c(-c2ccc(O)c(O)c2)oc2cc(O)cc(O)c12 [HYPEROSIDE]
experimental_result: 2.53
--
compound: O=C(O[C@@H]1Cc2c(O)cc(O)cc2O[C@@H]1c1ccc(O)c(O)c1)c1cc(O)c(O)c(O)c1 [EPICATECHIN GALLATE]
experimental_result: 3.28
--
compound: Oc1cc(O)c2c(c1)O[C@@H](c1ccc(O)c(O)c1)[C@@H](O)C2 [(+)-EPICATECHIN]
experimental_result: 3.76
--
compound: O=C1CC(c2ccc(O)cc2)Oc2ccccc21 (centres undefined) [4'-HYDROXY-FLAVANONE]
experimental_result: 2.74
--
compound: O=C1c2c(O)cc(O)cc2O[C@H](c2ccc(O)c(O)c2)[C@H]1O [(+)-TAXIFOLIN]
experimental_result: 3.52
--
compound: O=c1cc(-c2ccc(O)cc2)oc2cc(O)cc(O)c12
experimental_result: 2.61
--
compound: Oc1cc(O)c2c(c1)O[C@H](c1cc(O)c(O)c(O)c1)[C@H](O)C2 [EPIGALLOCATECHIN]
experimental_result: 2.40
--
compound: Oc1cc(O)c2c(c1)O[C@@H](c1ccc(O)c(O)c1)[C@H](O)C2 [(-)-CATECHIN]
experimental_result: 3.56
--
compound: O=c1cc(-c2ccc(O)c(-c3c(O)cc(O)c4c(=O)cc(-c5ccc(O)cc5)oc34)c2)oc2cc(O)cc(O)c12
experimental_result: 2.69
--
compound: O=C1C[C@@H](c2ccc(O)cc2)Oc2cc(O)cc(O)c21
experimental_result: 3.23

---

Biological target: Mu-type opioid receptor (Homo sapiens)
Assay: Antagonist activity at human mu opioid receptor expressed in CHO cells by [35S]GTP-gamma-S assay
Assay type: functional, cell-based
One threshold, 2000 nM, splits the recorded Ke values: lower ones are yes (1), equal or higher ones are no (0).

compound: O=c1c(O[C@@H]2O[C@H](CO)[C@H](O)[C@H](O)[C@H]2O)c(-c2ccc(O)c(O)c2)oc2cc(O)cc(O)c12 [HYPEROSIDE]
qualitative_label: yes (1)
//
compound: Oc1cc(O)c2c(c1)O[C@H](c1ccc(O)c(O)c1)[C@@H](O)C2 [CIANIDANOL]
qualitative_label: no (0)
//
compound: Oc1cc(O)c2c(c1)O[C@@H](c1ccc(O)c(O)c1)[C@@H](O)C2 [(+)-EPICATECHIN]
qualitative_label: no (0)
//
compound: O=C1c2c(O)cc(O)cc2O[C@H](c2ccc(O)c(O)c2)[C@H]1O [(+)-TAXIFOLIN]
qualitative_label: no (0)
//
compound: O=C1CC(c2ccc(O)cc2)Oc2ccccc21 (centres undefined) [4'-HYDROXY-FLAVANONE]
qualitative_label: yes (1)
//
compound: O=C(O[C@@H]1Cc2c(O)cc(O)cc2O[C@@H]1c1ccc(O)c(O)c1)c1cc(O)c(O)c(O)c1 [EPICATECHIN GALLATE]
qualitative_label: yes (1)
//
compound: COc1ccc([C@@H]2CC(=O)c3c(O)cc(O)cc3O2)cc1O
qualitative_label: no (0)
//
compound: O=c1cc(-c2ccc(O)cc2)oc2cc(O)ccc12
qualitative_label: yes (1)
//
compound: O=C(O[C@@H]1Cc2c(O)cc(O)cc2O[C@H]1c1ccc(O)c(O)c1)c1cc(O)c(O)c(O)c1 [(-)-CATECHINGALLATE]
qualitative_label: yes (1)
//
compound: O=c1cc(-c2ccc(O)cc2)oc2cc(O)cc(O)c12 [APIGENIN]
qualitative_label: yes (1)
//
compound: O=c1cc(-c2ccc(O)c(-c3c(O)cc(O)c4c(=O)cc(-c5ccc(O)cc5)oc34)c2)oc2cc(O)cc(O)c12 [AMENTOFLAVONE]
qualitative_label: no (0)
//
compound: Oc1cc(O)c2c(c1)O[C@@H](c1ccc(O)c(O)c1)[C@H](O)C2 [(-)-CATECHIN]
qualitative_label: no (0)
//
compound: O=C1C[C@@H](c2ccc(O)cc2)Oc2cc(O)cc(O)c21 [NARINGENIN]
qualitative_label: no (0)
//
compound: Oc1cc(O)c2c(c1)O[C@H](c1cc(O)c(O)c(O)c1)[C@H](O)C2 [EPIGALLOCATECHIN]
qualitative_label: yes (1)

---

Experiment: Binding affinity to opiate receptor
recorded_metric: IC50 (nM)

molecule: O=C(O[C@@H]1Cc2c(O)cc(O)cc2O[C@@H]1c1ccc(O)c(O)c1)c1cc(O)c(O)c(O)c1 [EPICATECHIN GALLATE]
experimental_result: 36

Value source: ChEMBL document CHEMBL1141265
